From: patent US8987195B2

biological target: HCV NS3/4A protease genotype 1b (Hepatitis C virus genotype 1b); test: HCV NS3/4A protease time-resolved fluorescence (TRF) assay, Ki against genotype 1b; assay type: biochemical; settings: IC50 [gt-1b], NS3/4A protease TRF assay, genotype 1b enzyme 0.2 nM; HCl salt
Threshold check on IC50: strictly below 10 pM is y; on or above 10 pM is n.

### Prompt Problem: For the compound "CC(C)(C)COC(=O)N[C@H]1CCCCC/C=C\[C@@H]2C[C@@]2(C(=O)NS(=O)(=O)C2(C)CC2)NC(=O)[C@@H]2C[C@]3(CCc4c(c(C(F)(F)F)nc5ccc(OCCN6CCOCC6)cc45)O3)CN2C1=O" , is IC50 under 10 pM?
### Response n

### Prompt Same question, "CC(C)COC(=O)N[C@H]1CCCCC/C=C\[C@@H]2C[C@@]2(C(=O)NS(=O)(=O)C2(C)CC2)NC(=O)[C@@H]2C[C@]3(CCc4c(c(C(F)(F)F)nc5ccc(OCCN6CCOCC6)cc45)O3)CN2C1=O" this time
### Response n

### Prompt Same lookup for "CCc1nc2ccc(OCCCN3CCOCC3)cc2c2c1O[C@]1(CC2)C[C@H]2C(=O)N[C@]3(C(=O)NS(=O)(=O)C4(C)CC4)C[C@H]3/C=C\CCCCC[C@H](NC(=O)OCC(C)(C)C)C(=O)N2C1" , please.
### Response y

### Prompt What about this compound? "CCc1nc2ccc(OCCN3CCOCC3)cc2c2c1O[C@]1(CC2)C[C@H]2C(=O)N[C@]3(C(=O)NS(=O)(=O)C4(C)CC4)C[C@H]3/C=C\CCCCC[C@H](NC(=O)OCC(C)C)C(=O)N2C1"
### Response y

### Prompt Moving on to the next compound: "CCc1nc2ccc(OCCN3CCOCC3)cc2c2c1O[C@]1(CC2)C[C@H]2C(=O)N[C@]3(C(=O)NS(=O)(=O)C4(C)CC4)C[C@H]3/C=C\CCCCC[C@H](NC(=O)O[C@@H](C)C(C)C)C(=O)N2C1"
### Response y

---

target: HCV NS3/4A protease genotype 3a (Hepatitis C virus genotype 3a, UniProt Q81495); experiment: HCV NS3/4A protease time-resolved fluorescence (TRF) assay, Ki against genotype 3a
VALUE_TYPE: pIC50
Please treat pIC50 as minus the base-10 logarithm of the molar concentration.

### Prompt Which pIC50 is reported for this molecule? CC(C)COC(=O)N[C@H]1CCCCC/C=C\[C@@H]2C[C@@]2(C(=O)NS(=O)(=O)C2(C)CC2)NC(=O)[C@@H]2C[C@]3(CCc4c(c(C(F)(F)F)nc5ccc(OCCCN6CCOCC6)cc45)O3)CN2C1=O [Example 511]
### Response 9.59

### Prompt Moving on to the next molecule: Cc1nc2cc(F)c(F)cc2c2c1O[C@]1(CC2)C[C@H]2C(=O)N[C@]3(C(=O)NS(=O)(=O)C4(C)CC4)C[C@H]3/C=C\CCCCC[C@H](NC(=O)OC3(C)CC3)C(=O)N2C1 [Example 195]
### Response 8.76

### Prompt Next record, please: CCc1nc2ccc(OCCN3CCOCC3)cc2c2c1O[C@]1(CC2)C[C@H]2C(=O)N[C@]3(C(=O)NS(=O)(=O)C4(C)CC4)C[C@H]3/C=C\CCCCC[C@H](NC(=O)OCC(C)C)C(=O)N2C1 [Example 515]
### Response 9.53

---

target: HCV NS3/4A protease genotype 3a (Hepatitis C virus genotype 3a, UniProt Q81495); experiment: HCV NS3/4A protease time-resolved fluorescence (TRF) assay, Ki against genotype 3a; format: biochemical
VALUE_TYPE: IC50
Field note: include the unit after the figure.

### Prompt What does the data say about its IC50? Entry: "COc1ccc2nc(C(F)(F)F)c3c(c2c1)CC[C@]1(C[C@H]2C(=O)N[C@]4(C(=O)NS(=O)(=O)C5(C)CC5)C[C@H]4/C=C\CCCCC[C@H](NC(=O)OCC(C)C)C(=O)N2C1)O3"
### Response 0.53 nM

### Prompt Subsequent entry: "COc1ccc2nc(C)c3c(c2c1)C(F)(F)C[C@]1(C[C@H]2C(=O)N[C@]4(C(=O)NS(=O)(=O)C5(C)CC5)C[C@H]4/C=C\CCCCC[C@H](NC(=O)OCC(C)C)C(=O)N2C1)O3"
### Response 2.1 nM

### Prompt Next: "Cc1nc2ccc(Cl)cc2c2c1O[C@]1(CC2)C[C@H]2C(=O)N[C@]3(C(=O)NS(=O)(=O)C4(C)CC4)C[C@H]3/C=C\CCCCC[C@H](NC(=O)OCC(C)C)C(=O)N2C1"
### Response 0.394 nM

---

target: HCV NS3/4A protease genotype 1b (Hepatitis C virus genotype 1b, UniProt P26663); assay: HCV NS3/4A protease time-resolved fluorescence (TRF) assay, Ki against genotype 1b; assay type: biochemical; conditions: IC50 [gt-1b] (nM), NS3/4A genotype 1b, enzyme 0.2 nM
VALUE_TYPE: IC50 (nM)
Number only, in nM; omit the unit.

### Prompt Name the reported IC50 value associated with the molecule "COc1ccc2nc(C(F)(F)F)c3c(c2c1)[C@@H](O)C[C@]1(C[C@H]2C(=O)N[C@]4(C(=O)NS(=O)(=O)C5(C)CC5)C[C@H]4/C=C\CCCCC[C@H](NC(=O)OC(C)(C)C)C(=O)N2C1)O3"
### Response 0.007

### Prompt Now this one: "CC(C)(C)OC(=O)N[C@H]1CCCCC/C=C\[C@@H]2C[C@@]2(C(=O)NS(=O)(=O)C2(C)CC2)NC(=O)[C@@H]2C[C@]3(CCc4c(c(C(F)(F)F)nc5ccccc45)O3)CN2C1=O"
### Response 0.009

### Prompt Likewise for "COC(=O)N[C@H]1CCCCC/C=C\[C@@H]2C[C@@]2(C(=O)NS(=O)(=O)C2(C)CC2)NC(=O)[C@@H]2C[C@]3(CCc4c(c(-c5cccc(F)c5)nc5ccccc45)O3)CN2C1=O" ?
### Response 0.202

---

So I've got a bunch of compounds here, and I need their IC50 values.
target: HCV NS3/4A protease genotype 1b (Hepatitis C virus genotype 1b); assay: HCV NS3/4A protease time-resolved fluorescence (TRF) assay, Ki against genotype 1b; type: biochemical; details: IC50 [gt-1b] (nM), NS3/4A genotype 1b, enzyme 0.2 nM
Use nM as the unit, but write only the number.

### Prompt Item under review: "Cc1nc2ccccc2c2c1O[C@]1(CC2)C[C@H]2C(=O)N[C@]3(C(=O)NS(=O)(=O)C4(C)CC4)C[C@H]3/C=C\CCCCC[C@H](NC(=O)OC3CCC(F)(F)CC3)C(=O)N2C1" . Reported IC50?
### Response 0.003

### Prompt Cool, now "Cc1nc2ccc(C3CC3)cc2c2c1O[C@]1(CC2)C[C@H]2C(=O)N[C@]3(C(=O)NS(=O)(=O)C4(C)CC4)C[C@H]3/C=C\CCCCC[C@H](NC(=O)OC(C)(C)C)C(=O)N2C1"
### Response 0.017

### Prompt Now this one: "Cc1nc2ccccc2c2c1O[C@]1(CC2)C[C@H]2C(=O)N[C@]3(C(=O)NS(=O)(=O)C4(C)CC4)C[C@H]3/C=C\CCCCC[C@H](NC(=O)OC(C)C)C(=O)N2C1"
### Response 0.013

### Prompt And the next one, "Cc1nc2ccc(OC(F)(F)F)cc2c2c1O[C@]1(CC2)C[C@H]2C(=O)N[C@]3(C(=O)NS(=O)(=O)C4(C)CC4)C[C@H]3/C=C\CCCCC[C@H](NC(=O)OC3CCCC3)C(=O)N2C1" ?
### Response 0.016

### Prompt Consider next the compound "Cc1nc2cc(F)c(F)cc2c2c1O[C@]1(CC2)C[C@H]2C(=O)N[C@]3(C(=O)NS(=O)(=O)C4(C)CC4)C[C@H]3/C=C\CCCCC[C@H](NC(=O)OC(C)(C)C)C(=O)N2C1" in the same way.
### Response 0.006

---

System: HCV genotype 1b replicon
Assay: HCV replicon assay, genotype 1b replicon EC50
Type: cell-based, Hepatitis C virus
Details: Hepatitis C virus, HCV replicon, genotype 1b; read-out: EC50 [gt-1b]
Protocol: Measuring Compound Inhibitory Potency (Genotype 1b Replicon EC50 (nM)) Measurement of inhibition by compounds was performed using the HCV replicon system. Several different replicons encoding different HCV genotypes or mutations were used. […] To initiate an assay, replicon cells were plated in the presence of a dilution series of test compound in the absence of G418. […] In some cases, luciferase activity was measured using a conventional luciferase assay. […]
VALUE_TYPE: EC50 (nM)
Express your answer in nM, writing the number without its unit.

### Prompt Sample Cc1nc2ccc(OCCN3CCOCC3)cc2c2c1O[C@]1(CC2)C[C@H]2C(=O)N[C@]3(C(=O)NS(=O)(=O)C4(C)CC4)C[C@H]3/C=C\CCCCC[C@H](NC(=O)OCC(C)(C)C)C(=O)N2C1 [Example 425] — what was its EC50?
### Response 3.29

### Prompt Continue with CCc1nc2ccc(OC)cc2c2c1O[C@]1(CC2)C[C@H]2C(=O)N[C@]3(C(=O)NS(=O)(=O)C4(C)CC4)C[C@H]3/C=C\CCCCC[C@H](NC(=O)c3sccc3C)C(=O)N2C1 [Example 480]
### Response 0.266

### Prompt Another: COc1ccc2nc(C)c3c(c2c1)CC[C@]1(C[C@H]2C(=O)N[C@]4(C(=O)NS(=O)(=O)C5(C)CC5)C[C@H]4/C=C\CCCCC[C@H](Nc4ncccc4C)C(=O)N2C1)O3 [Example 429]
### Response 4.28

### Prompt How about this molecule: COCCOc1ccc2nc(C)c3c(c2c1)CC[C@]1(C[C@H]2C(=O)N[C@]4(C(=O)NS(=O)(=O)C5(C)CC5)C[C@H]4/C=C\CCCCC[C@H](NC(=O)OCC(C)C)C(=O)N2C1)O3 [Example 411]
### Response 5.77

### Prompt Let us now turn to COc1ccc2nc(C)c3c(c2c1)[C@H](F)C[C@]1(C[C@H]2C(=O)N[C@]4(C(=O)NS(=O)(=O)C5(C)CC5)C[C@H]4/C=C\CCCCC[C@H](NC(=O)OC(C)C(C)(C)C)C(=O)N2C1)O3 (some centres unmarked) [Example 404]
### Response 1.23
